Values from patent US8569308B2

Measured pIC50 (UniProt:P31424)
Please report pIC50 as the negative decimal logarithm of the molar concentration, giving only the number.

INSERT INTO measurements (compound_smiles, data_value) VALUES
  ('CN(c1cncnc1)c1ccnc(NC(=O)c2cccc(Br)c2)c1', 6.79);

Next, consider the following compound.
Q: Return reported pIC50; argument: N#Cc1cccc(C(=O)Nc2cncc(Oc3cccnc3)c2)c1
A: 6.30

----------
Measured pIC50 (rat mGluR5 (Rattus norvegicus, UniProt P31424))
pIC50: −log10 of the molar value.

INSERT INTO assay_data (compound_smiles, endpoint_name, data_value) VALUES
  ('Cc1cccc(C(=O)Nc2cncc(Oc3ccc(C(F)(F)F)nc3)n2)n1', 'pIC50', '< 4.52'),
  ('Cc1ccc(Oc2cncc(NC(=O)c3cccc(Cl)c3)n2)cn1', 'pIC50', '< 5.00'),
  ('N#Cc1cccc(C(=O)Nc2cccc(Oc3ccc(C(F)(F)F)nc3)n2)c1', 'pIC50', '< 4.52'),
  ('O=C(Nc1cncc(Oc2cncnc2)c1)c1cc(Cl)ccc1F', 'pIC50', 6.03),
  ('CN(c1cccnc1)c1ccnc(NC(=O)c2cccc(Br)c2)c1', 'pIC50', 6.91);

Q: So what pIC50 did O=C(Nc1ccnc(Oc2cccnc2)c1)c1cccc(Br)c1 get with rat mGluR5 (Rattus norvegicus, UniProt P31424)?
A: < 5.00

Q: So what pIC50 did N#Cc1csc(C(=O)Nc2cncc(Oc3cncnc3)c2)c1 get with rat mGluR5 (Rattus norvegicus, UniProt P31424)?
A: < 5.00

Q: So what pIC50 did CCN(c1cncnc1)c1cncc(NC(=O)c2cccc(C#N)c2)c1 get with rat mGluR5 (Rattus norvegicus, UniProt P31424)?
A: 5.75

Q: So what pIC50 did O=C(Nc1cncc(Oc2cncnc2)c1)c1cscn1 get with rat mGluR5 (Rattus norvegicus, UniProt P31424)?
A: < 5.00

Q: So what pIC50 did CN(c1cncnc1)c1ccnc(NC(=O)c2cccc(C#N)c2)c1 get with rat mGluR5 (Rattus norvegicus, UniProt P31424)?
A: 5.65

Q: So what pIC50 did Cc1cccc(C(=O)Nc2cccc(Oc3ccc(C(F)(F)F)nc3)n2)c1 get with rat mGluR5 (Rattus norvegicus, UniProt P31424)?
A: < 4.52
